src = ChEMBL document CHEMBL1133408

system: HL-60; test: Inhibition of HL60 cancer cell proliferation; format: functional, cell-based, Homo sapiens; settings: Homo sapiens, HL-60; read-out: IC50
property_name: IC50 (µg/mL)

(P) Cc1nc2c(s1)C(=O)C=C(Nc1ccc(Cl)cc1)C2=O
(Q) Cc1nc2c(s1)C(=O)C=C(Nc1ccc(F)cc1)C2=O
Compare P and Q by numeric IC50 and name the larger one. Please identify the chosen entry by its label. P
(P: 0.33 µg/mL, Q: 0.23 µg/mL)

(a) Cn1cnc2c(NCc3ccccc3)nc(NCCO)nc21
(b) COc1ccc(NC2=CC(=O)c3sc(C)nc3C2=O)cc1
Pick one, a or b : lowest reported IC50. Please identify the chosen entry by its label. b
(b: 0.27 µg/mL, a: 50 µg/mL)

###

tested on: HL-60; experiment: Inhibition of HL60 cancer cell proliferation; assay type: functional, cell-based, Homo sapiens; settings: Homo sapiens, HL-60; read-out: IC50
property_name: IC50 (µg/mL)

# record_smiles, reported_value
records = [
    ("Cc1nc2c(s1)C(=O)C=C(Nc1ccc(I)cc1)C2=O", 0.24),
    ("Cc1ccc(NC2=CC(=O)c3sc(C)nc3C2=O)cc1", 0.3),
    ("CCOc1ccc(NC2=CC(=O)c3sc(C)nc3C2=O)cc1", 0.29),
    ("Cc1nc2c(s1)C(=O)C=C(Nc1ccccc1)C2=O", 0.28),
]

###

biological target: Cyclin-dependent kinase 2 (Homo sapiens, UniProt P24941); assay: Inhibition of Cyclin-dependent kinase 2 (CDK2/cyclin A)
The entries below are paired with their reported IC50.

Here is how some compounds turned out for IC50.
# record_smiles, IC50
records = [
    ("Cc1ccc(NC2=CC(=O)c3sc(C)nc3C2=O)cc1", "> 200 µM"),
    ("Cc1nc2c(s1)C(=O)C=C(Nc1ccc(I)cc1)C2=O", "> 200 µM"),
]

Lab note: next compound to report on.
Data point: Cc1nc2c(s1)C(=O)C=C(Nc1ccc(F)cc1)C2=O ; IC50 = > 200 µM

###

tested on: HepG2; assay: Inhibition of HepG2 cancer cell proliferation; assay type: functional, cell-based; conditions: Homo sapiens
property_name: IC50 (µg/mL)

# record_smiles, IC50 / µg/mL
records = [
    ("Cc1nc2c(s1)C(=O)C=C(Nc1ccc(Br)cc1)C2=O", 2.78),
    ("Cc1nc2c(s1)C(=O)C=C(Nc1ccc(F)cc1)C2=O", 1.51),
    ("Cc1nc2c(s1)C(=O)C=C(Nc1ccc(O)cc1)C2=O", 1.36),
    ("Cc1nc2c(s1)C(=O)C=C(Nc1ccccc1)C2=O", 1.3),
    ("COc1ccc(NC2=CC(=O)c3sc(C)nc3C2=O)cc1", 1.39),
]

(A) CCOc1ccc(NC2=CC(=O)c3sc(C)nc3C2=O)cc1
(B) Cc1nc2c(s1)C(=O)C=C(Nc1ccc(Cl)cc1)C2=O
Compare A and B by numeric IC50 and name the larger one. Please identify the chosen entry by its label. B
(B: 3.23 µg/mL, A: 1.53 µg/mL)

###

target: Cyclin-dependent kinase 4 (Homo sapiens, UniProt P11802); assay: Inhibition of Cyclin-dependent kinase 4 (CDK4/cyclin Dl)
Sequence (P11802 whole entry): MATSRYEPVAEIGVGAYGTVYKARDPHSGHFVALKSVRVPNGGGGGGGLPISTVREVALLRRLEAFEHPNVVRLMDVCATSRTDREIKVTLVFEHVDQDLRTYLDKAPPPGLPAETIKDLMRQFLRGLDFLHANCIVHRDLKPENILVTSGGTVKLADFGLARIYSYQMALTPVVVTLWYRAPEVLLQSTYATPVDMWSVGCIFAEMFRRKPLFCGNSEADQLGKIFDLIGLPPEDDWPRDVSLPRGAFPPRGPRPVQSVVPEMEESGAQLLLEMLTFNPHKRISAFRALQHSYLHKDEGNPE
pIC50: −log10 of the molar value.
property_name: pIC50

# record_smiles, reported_value
records = [
    ("Cc1nc2c(s1)C(=O)C=C(Nc1ccc(F)cc1)C2=O", 5.20),
    ("Cc1ccc(NC2=CC(=O)c3sc(C)nc3C2=O)cc1", 5.22),
    ("Cc1nc2c(s1)C(=O)C=C(Nc1ccccc1)C2=O", 5.22),
    ("Cc1nc2c(s1)C(=O)C=C(Nc1ccc(Cl)cc1)C2=O", 5.15),
]

(I) CCOc1ccc(NC2=CC(=O)c3sc(C)nc3C2=O)cc1
(II) COc1ccc(NC2=CC(=O)c3sc(C)nc3C2=O)cc1
(III) Cc1nc2c(s1)C(=O)C=C(Nc1ccc(I)cc1)C2=O
Rank the 3 compounds: largest pIC50 first, smallest last. In your reply, arrange the labels in the requested order. III, II, I
(III: 5.52, II: 5.25, I: 4.70)
